Tested on: Candida albicans
EXPERIMENTAL DETAILS: Antibiofilm activity against fluconazole-resistant Candida albicans 29E clinical isolates after 48 hrs by Alamar blue assay
Assay type: functional
READOUT NAME: IC50

Given the entry O=[N+]([O-])c1ccc(O)c2ncccc12 , report its measured IC50. 1 to 5.8 µM

Given the entry Oc1c(Cl)cc(Cl)c2cccnc12 , report its measured IC50. 1.2 to 13.2 µM

Given the entry CCC(CO)N1C(C)=CC(=Cc2sc3ccccc3[n+]2Cc2ccccc2)C=C1C (stereo unspecified) , report its measured IC50. 1.7 to 119 µM

Given the entry Cc1ccccc1OCc1n(CC(=O)OC2CC(C)CCC2C(C)C)c2ccccc2[n+]1C (stereo unspecified) , report its measured IC50. 9.8 to 24.3 µM

Given the entry CCN1/C(=C\c2ccc3ccccc3[n+]2CC)Sc2cc(C)ccc21 , report its measured IC50. 2.8 to 82.1 µM

Given the entry CCN1/C(=C/c2ccc3cc(C)ccc3[n+]2CC)Sc2cc(C)c(C)cc21 , report its measured IC50. 231 to 268 µM
